System: Trichostrongylus colubriformis
Experiment: In-vivo test on Trichostrongylus colubriformis on Mongolian gerbils using peroral application
Conditions: po, 72 h, 1 mg/kg peroral, worm count 3 days after treatment, read-out: Tc: efficacy, % reduction of the number of worms
Known inhibition in vivo at 1 mg/kg of a selection of compounds
Write the number in % without appending the unit.

# example entries with known answers
# compound, inhibition in vivo at 1 mg/kg (%)
data = [
    ("CC(C#N)(COc1cc(C#N)ccc1C(F)(F)F)NC(=O)c1ccc(OC(F)(F)F)cc1 (centres unmarked) [No. 2.6]", 85),
    ("CC(C#N)(COc1ccccc1C(F)(F)F)NC(=O)c1ccc(OC(F)(F)F)cc1 (centres unmarked) [No. 1.64, reference compound]", 55),
    ("CC(C#N)(COc1ccc(C#N)cc1C(F)(F)F)NC(=O)c1ccc(SC(F)(F)F)cc1 (centres unmarked) [No. 3.7]", 98),
    ("CC(C#N)(COc1cc(C#N)ccc1Cl)NC(=O)c1ccc(SC(F)(F)F)cc1 (centres unmarked) [No. 3.10]", 100),
]

Look up inhibition in vivo at 1 mg/kg for this compound: CC(C#N)(COc1ccc(C#N)cc1C(F)(F)F)NC(=O)c1ccc(C(F)(F)F)cc1 (centres unmarked) [No. 1.3]
91

Look up inhibition in vivo at 1 mg/kg for this compound: CC(C#N)(COc1ccc(C#N)cc1Cl)NC(=O)c1ccc(SC(F)(F)F)cc1 (centres unmarked) [No. 3.1]
93

###

readout.kind: melting point

# example entries with known answers
# molecule, melting point
records = [
    ("CC(C#N)(COc1ccc(C#N)cc1C(F)(F)F)NC(=O)c1ccc(OC(F)(F)F)cc1 (stereo not shown)", "80 to 82 °C"),
    ("CC(C#N)(COc1cc(C#N)ccc1Cl)NC(=O)c1ccc(C(F)(F)F)cc1 (stereo not shown)", "147 to 149 °C"),
    ("CC(C#N)(COc1ccc(C#N)cc1Cl)NC(=O)c1ccc(OC(F)(F)F)cc1 (stereo not shown)", "60 to 62 °C"),
]

Let us examine a further case.
Look up melting point for this molecule: CC(C#N)(COc1ccc(C#N)cc1C(F)(F)F)NC(=O)c1ccc(C(F)(F)F)cc1 (stereo not shown)
184 to 186 °C

###

Tested on: Haemonchus contortus
Test: In-vivo test on Haemonchus contortus on Mongolian gerbils using peroral application
Conditions: po, 72 h, 10 mg/kg peroral, worm count 3 days after treatment, read-out: Hc: efficacy, % reduction of the number of worms
Known inhibition in vivo at 10 mg/kg of a selection of compounds
Write the number in % without appending the unit.

# compound, readout.kind, unit.abbrev, value.reported
rows = [
    ("CC(C#N)(COc1ccccc1Cl)NC(=O)c1ccc(C(F)(F)F)cc1 (stereo not shown) [No. 1.12, reference compound]", "inhibition in vivo at 10 mg/kg", "%", 82),
    ("CC(C#N)(COc1ccccc1C(F)(F)F)NC(=O)c1ccc(C(F)(F)F)cc1F (stereo not shown) [No. 2.19, reference compound]", "inhibition in vivo at 10 mg/kg", "%", 25),
]

Look up inhibition in vivo at 10 mg/kg for this compound: CC(C#N)(COc1cc(Cl)ccc1Cl)NC(=O)c1ccc(C(F)(F)F)cc1 (stereo not shown) [No. 1.72, reference compound]
66

Look up inhibition in vivo at 10 mg/kg for this compound: CC(C#N)(COc1cc(Cl)ccc1Cl)NC(=O)c1ccc(OC(F)(F)F)cc1 (stereo not shown) [No. 1.124, reference compound]
84
